readout.kind: melting point

Some compounds with recorded melting point:
CC(=O)OC1N=C(c2ccccc2Cl)c2c(cn(C)c2C)N(C)C1=O (centres undefined)    202 to 204 °C
CCSC(=O)c1nc(N)ccc1Oc1nc(OC)cc(OC)n1    115 to 118 °C
CCc1sc2c(c1C(=O)CCCN1CCC(c3noc4cc(F)ccc34)CC1)CCN(C(C)=O)C2    93 to 95 °C

Would you kindly look at the next entry?
### Prompt Name the recorded melting point for Fc1ccc(-c2cc3ncnc(Nc4ccc5[nH]ccc5c4)c3s2)cc1 .
### Response 193 to 205 °C

* * *

readout.kind: melting point (°C)

(P) CS(=O)(=O)N[C@H]1CC[C@H](CCN2CCN(c3nccc4c3CCO4)CC2)CC1
(Q) Cc1c(NC(=O)c2ccc(OCCCCF)cc2F)ccc2cc(CN3CCCC3)cnc12
### Prompt API: POST /compare with P and Q ; response names the item with higher melting point. When you have decided, please share the label of that item.
### Response P
